Structures can show the parent of a compound that is named as a salt.
For human thrombin (Homo sapiens, UniProt P00734), measured pIC50 is reported for the entries below.
Answers are plain numbers, as −log10 of the molar value.

COc1ccc(CCNc2ncc3n(c2=O)[C@H](C(=O)NCc2ccc(N)nc2C)CC3)cc1OC.Cl.Cl.O [Example 7, dihydrochloride monohydrate]	7.38
Cc1nc(N)ccc1CNC(=O)[C@@H]1CCc2cnc(NCCc3cccnc3)c(=O)n21.Cl.Cl.Cl [Example 16, trihydrochloride]	7.77
COc1ccc(C(CNc2ncc3n(c2=O)C(C(=O)NCc2ccc(N)nc2C)CC3)c2ccc(OC)cc2)cc1.Cl.Cl (stereo not drawn) [Example 98, dihydrochloride]	8.10
Cc1nc(N)ccc1CNC(=O)[C@@H]1CCc2cnc(NCC(c3ccccn3)c3ccccn3)c(=O)n21.Cl.Cl.Cl.Cl [Example 22]	7.70
Cc1cc(CNC(=O)[C@@H]2CCc3cnc(NCCc4ccccn4)c(=O)n32)c(C)nc1N.Cl.Cl.Cl [Example 68, trihydrochloride]	7.80

Switching to the query record.
# query: pIC50 of entry Cc1nc(N)ccc1CNC(=O)[C@@H]1CCc2cnc(NCCc3ccccc3)c(=O)n21 [Example 1, dihydrochloride]
7.47

* * *

System: human plasma
assay: Anti-coagulant activity, thrombin time (TT) in human plasma
Type: biochemical
test-settings: 37° C.
Counter-ions that a name gives are not always drawn.
metric-name: TT Ctt2 (concentration that doubles the coagulation time) (µM)
Give bare numbers, in µM.

Cc1nc(N)ccc1CNC(=O)[C@@H]1CCc2cnc(NCCc3cccnc3)c(=O)n21.Cl.Cl.Cl	0.17
Cc1nc(N)ccc1CNC(=O)[C@@H]1CCc2cnc(NCC(c3ccccc3)c3ccccc3)c(=O)n21.Cl.Cl	0.4
COc1ccc(C(CNc2ncc3n(c2=O)C(C(=O)NCc2ccc(N)nc2C)CC3)c2ccc(OC)cc2)cc1.Cl.Cl (stereo not shown)	0.33

Return reported TT Ctt2 (concentration that doubles the coagulation time) values for all items listed beneath this line.
1. Cc1nc(N)ccc1CNC(=O)[C@@H]1CCc2cnc(NCC(c3ccccc3)c3ccccn3)c(=O)n21 (single isomer, unassigned)
2. COc1ccc(C(CNc2ncc3n(c2=O)[C@H](C(=O)NCc2ccc(N)nc2C)CC3)c2ccc(OC)cc2)cc1.Cl.Cl

[0.15, 0.24]

Return reported TT Ctt2 (concentration that doubles the coagulation time) values for all items listed beneath this line.
1. COc1ccc(CCNc2ncc3n(c2=O)[C@H](C(=O)NCc2ccc(N)nc2C)CC3)cc1OC.Cl.Cl.O
2. Cc1nc(N)ccc1CNC(=O)[C@@H]1CCc2cnc(NCC(c3ccccn3)c3ccccn3)c(=O)n21.Cl.Cl.Cl.Cl
3. Cc1cc(CNC(=O)[C@@H]2CCc3cnc(NCCc4ccccn4)c(=O)n32)c(C)nc1N.Cl.Cl.Cl
4. Cc1nc(N)ccc1CNC(=O)[C@@H]1CCc2cnc(NCCc3ccccc3)c(=O)n21 [Example 1, dihydrochloride]
5. Cc1nc(N)ccc1CNC(=O)[C@@H]1CCc2cnc(NCCc3ccccn3)c(=O)n21.Cl.Cl.Cl

1. 3
2. 0.22
3. 0.23
4. 3
5. 0.11

* * *

Tested on: dog plasma
assay: Anti-coagulant activity after administration per os to dogs, ACT
Type: in vivo
test-settings: p.o., 3 mg/kg
Structures can show the parent of a compound that is named as a salt.
metric-name: Maximum ACT increase (number of times by which the initial time has been increased) (times)
One number for each entry, in times.

Cc1nc(N)ccc1CNC(=O)[C@@H]1CCc2cnc(NCCc3ccccn3)c(=O)n21.Cl.Cl.Cl [Example 15]	1.6
COc1ccc(CCNc2ncc3n(c2=O)[C@H](C(=O)NCc2ccc(N)nc2C)CC3)cc1OC.Cl.Cl.O [Example 7]	1.4
Cc1nc(N)ccc1CNC(=O)[C@@H]1CCc2cnc(NCCc3ccccc3)c(=O)n21 [Example 1, dihydrochloride]	1.6

Switching to the query record.
# query: Maximum ACT increase (number of times by which the initial time has been increased) of entry Cc1nc(N)ccc1CNC(=O)[C@@H]1CCc2cnc(NCC(c3ccccc3)c3ccccn3)c(=O)n21 (single isomer, unassigned) [Example 20]
1.4

* * *

system-tested: human plasmin (Homo sapiens, UniProt P00747)
Sequence (P00747 581-810 limits assumed): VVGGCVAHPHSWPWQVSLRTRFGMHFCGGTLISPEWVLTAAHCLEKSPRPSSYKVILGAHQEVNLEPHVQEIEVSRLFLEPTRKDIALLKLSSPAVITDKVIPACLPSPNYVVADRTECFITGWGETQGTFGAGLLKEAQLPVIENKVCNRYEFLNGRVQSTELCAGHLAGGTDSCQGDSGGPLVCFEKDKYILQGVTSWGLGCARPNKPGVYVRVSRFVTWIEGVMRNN
Structures can show the parent of a compound that is named as a salt.
metric-name: IC50

Example cases with answers are listed next.
COc1ccc(CCNc2ncc3n(c2=O)[C@H](C(=O)NCc2ccc(N)nc2C)CC3)cc1OC.Cl.Cl.O [Example 7, dihydrochloride monohydrate]	> 33 µM
Cc1nc(N)ccc1CNC(=O)[C@@H]1CCc2cnc(NCC(c3ccccc3)c3ccccc3)c(=O)n21.Cl.Cl [Example 6, dihydrochloride]	> 33 µM
Cc1nc(N)ccc1CNC(=O)[C@@H]1CCc2cnc(NCCc3ccccc3)c(=O)n21 [Example 1, dihydrochloride]	> 33 µM
Cc1nc(N)ccc1CNC(=O)[C@@H]1CCc2cnc(NCCc3ccccn3)c(=O)n21.Cl.Cl.Cl [Example 15, trihydrochloride]	> 33 µM

Switching to the query record.
# query: IC50 of entry COc1ccc(C(CNc2ncc3n(c2=O)C(C(=O)NCc2ccc(N)nc2C)CC3)c2ccc(OC)cc2)cc1.Cl.Cl (centres unmarked) [Example 98, dihydrochloride]
> 33 µM

* * *

For each record, write down the corresponding pIC50.
system-tested: UniProt:P00734
Counter-ions that a name gives are not always drawn.
One number for each entry, as −log10 of the molar value.

Example cases with answers are listed next.
Cc1nc(N)ccc1CNC(=O)[C@@H]1CCc2cnc(NCC(c3ccccc3)c3ccccc3)c(=O)n21.Cl.Cl [Example 6, dihydrochloride]	7.96
Cc1nc(N)ccc1CNC(=O)[C@@H]1CCc2cnc(NCC3c4ccccc4CCc4ccccc43)c(=O)n21 [Example 40, dihydrochloride]	7.37
Cc1nc(N)ccc1CNC(=O)[C@@H]1CCc2cnc(NCCc3ccccn3)c(=O)n21.Cl.Cl.Cl [Example 15, trihydrochloride]	8.15
COc1ccc(C(CNc2ncc3n(c2=O)[C@H](C(=O)NCc2ccc(N)nc2C)CC3)c2ccc(OC)cc2)cc1.Cl.Cl [Example 23, dihydrochloride]	8.41
CCNC(=O)COc1ccccc1CNC(=O)[C@@H]1CCc2cnc(NCC(c3ccccc3)c3ccccc3)c(=O)n21 [Example 103, hydrochloride]	7.85

# query: pIC50 of entry Cc1nc(N)ccc1CNC(=O)[C@@H]1CCc2cnc(NCCc3cccc4ccccc34)c(=O)n21 [Example 50, dihydrochloride]
7.54
